Reference source: BindingDB's records for patent US11718589

- study-target: 15-hydroxyprostaglandin dehydrogenase [NAD(+)] (Homo sapiens, UniProt P15428)
- Sequence (P15428 whole entry): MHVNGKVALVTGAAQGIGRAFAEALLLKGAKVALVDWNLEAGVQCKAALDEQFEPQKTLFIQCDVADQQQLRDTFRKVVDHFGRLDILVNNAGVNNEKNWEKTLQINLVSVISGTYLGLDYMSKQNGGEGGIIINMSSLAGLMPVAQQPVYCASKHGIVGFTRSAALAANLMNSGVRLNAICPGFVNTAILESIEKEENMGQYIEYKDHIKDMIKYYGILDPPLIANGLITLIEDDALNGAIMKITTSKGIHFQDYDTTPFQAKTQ
quantity-measured: IC50 (nM)
One number for each entry, in nM.

INSERT INTO measurements (molecule, quantity_measured, assay_result) VALUES
  ('CCCC[S+]([O-])c1cc2nc(-c3ccc(OC)cc3)cc(-c3ccc(F)cc3)n2n1 (stereo not given)', 'IC50', 59);

// switching to the query molecule
Need IC50, item CCCC[S+]([O-])c1cc2nc(-c3ccc(OC)cc3)cc(-c3ccccc3)n2n1 (stereo not given)
39

###

- study-target: 15-hydroxyprostaglandin dehydrogenase [NAD(+)] (Homo sapiens)
- Sequence (P15428 whole entry): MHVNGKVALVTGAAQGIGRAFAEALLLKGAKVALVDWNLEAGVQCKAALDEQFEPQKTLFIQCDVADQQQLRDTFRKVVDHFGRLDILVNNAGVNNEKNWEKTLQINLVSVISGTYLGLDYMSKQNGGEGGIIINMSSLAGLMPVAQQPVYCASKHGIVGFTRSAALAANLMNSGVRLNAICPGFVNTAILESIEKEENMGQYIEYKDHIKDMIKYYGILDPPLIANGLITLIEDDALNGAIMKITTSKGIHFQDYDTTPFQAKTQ
Could you please report measured IC50 for the items listed next?

Known IC50 results, listed for orientation:
INSERT INTO results (compound, assay_result) VALUES
  ('COc1ccc(-c2cc(C(F)(F)F)n3nc(C(=O)NCCO)cc3n2)cc1 [US11718589, Compound 12a]', '> 2500 nM'),
  ('CCNC(=O)c1cc2nc(-c3ccc(OC)cc3)cc(C(F)(F)F)n2n1', '> 2500 nM');

Read the next record carefully.
Sample "CCCCS(=O)(=O)c1cc2nc(-c3ccc(OC)cc3)cc(C(F)(F)F)n2n1" — what was its IC50?
> 2500 nM
